assayed.system: T1, human NK1 receptor (human, UniProt P25103)
T1 chain: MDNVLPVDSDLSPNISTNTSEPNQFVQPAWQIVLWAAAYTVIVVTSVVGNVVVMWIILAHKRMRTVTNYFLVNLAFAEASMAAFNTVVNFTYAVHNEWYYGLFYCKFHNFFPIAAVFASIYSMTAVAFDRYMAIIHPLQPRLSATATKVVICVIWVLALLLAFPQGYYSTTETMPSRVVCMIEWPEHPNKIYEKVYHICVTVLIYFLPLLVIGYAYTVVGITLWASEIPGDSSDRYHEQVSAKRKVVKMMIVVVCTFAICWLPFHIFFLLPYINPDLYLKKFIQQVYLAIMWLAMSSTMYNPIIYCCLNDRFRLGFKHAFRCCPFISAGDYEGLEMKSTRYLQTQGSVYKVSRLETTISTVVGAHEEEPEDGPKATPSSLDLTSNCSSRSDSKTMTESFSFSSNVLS
assay.procedure: competition
Non-standard residues stand in square brackets, D forms with d. Primed or numbered codes have the meaning given here. No end group written: not given here. *: point of attachment. NH(3,5-(CF3)2-benzyl) = FC(F)(F)c1cc(CN*)cc(C(F)(F)F)c1; NMePhe(4-F) = CN[C@@H](Cc1ccc(F)cc1)C(=O)O; NMeF = CN[C@@H](Cc1ccccc1)C(=O)O; 4Amb′ = not defined here; GABA = NCCCC(=O)O
Reported Ki is given for each of the following binders.
// return numeric value only (unit: nM, not printed)

**Query** Requested field: Ki. Item: Y[dA]G[NMeF][GABA]PLW-{NH(3,5-(CF3)2-benzyl)} [AKG123]
**Result** 1.56

Next:
**Query** Requested field: Ki. Item: Y[dA]G[NMePhe(4-F)]GPLW-{NH(3,5-(CF3)2-benzyl)} [AKG131]
**Result** 2.14

**Query** How about this binder: Y[dA]G[NMeF][4Amb′]PLW-{NH(3,5-(CF3)2-benzyl)} (reading uncertain) [AKG125]
**Result** 2.27

**Query** How about this binder: XAGFMPLW (not fully specified; Dmt1, D-Ala2, NMePhe4 as described; C-terminal benzylamide) [AKG107]
**Result** 1.97
